MFI values for the binders below.
target-or-test-system: full-length recombinant H1 HA (A/New Caledonia/20/1999) on PER.C6 cells (influenza A virus (H1N1))
procedure-summary: FACS, IgG 5 µg/ml, HA-expressing PER.C6 cells; untransfected MFI 4
Reply with just the number (in MFI).

binder: CR8001 (antibody, V domains shown) VH: EVQLVESGGGLIQPGGSLRLSCAASGFTVSSNYVSWVRQAPGKGLEWLSLIYTGGTTYYADSVKGRFTISRDNSKNTVFLQMNSLRAEDAAMYYCARVSALRFLQWPNYAMDV VL: QSALTQPASVSGSPGRSITISCSGTRSDVGGHNYVSWYQQHPGKAPKLMIYEVSHRPSGVSNRFSGSKSGSTASLTISGLQSEDEADYYCSSYTGEGPLGV
measurement-kind: MFI
readout-units: MFI
quantitative-readout: 100
--
binder: CR8039 (antibody, V domains shown) VH: QLQLQESGPGLVKPSETLSLTCTVSGGSIGSYYWSWIRQPPGKGLEWIGYIYYRGGTSYNPSLKSRVTISVDTSKSQFTLKLNSVTAADTAVYYCARKDWGSAAGSVWYFDL VL: QSALTQPPSASGSPGQSVTISCTGTSSDVGGYNYVSWYQQHPGKAPKLMIREVSKRPSGVPDRFSGSKSGNTASLTVSGLQAEDEAEYYCSSYAGSNNLI
measurement-kind: MFI
readout-units: MFI
quantitative-readout: 4

Any idea what its MFI is? The binder is CR8041 (antibody, V domains shown) VH: QVQLVQSGAEVKKPGASVKVSCQASGYTFTSFGLSWVRQAPGQGPEWMGWISAYNGEIKYAQKFQGRVSMTTDTSTRTAYMEVRSLRPDDTAVYYCAREPPLYFSSWSLDF VL: EIVLTQSPGTLSLSPGERATLSCRASQSVSSNYLAWFQQKPGQAPRLLIYGASRRATGIPDRFSGSGSGTDFTLTISRLEPEDFAVYYCQQYDSSPRT
4

Try this binder too: CR8052 (antibody, V domains shown) VH: DIQLTQSPSSLSASVGDRVTITCRASQGINTYLNWYQQKPGKAPKVLIFAASTLQSGVPSRFSGSGSGTEFTLNINNLQPEDFATYYCQQSYSTAIT VL: EVQLVESGGGVVQPGRSLRLSCAASGFSFTTYGMHWVRQAPGKGLEWVAFIWYDGSNKHYQDSVKGRFTISKDNSNNMLYLQMDSLRVADTAVYYCVRDGGYSTWEWYFDL
4
